Read-out: Glutamate-cysteine ligase catalytic (GCLC), GCLC (gene 2729)
Assay: LTEA_HepaRG_GCLC: Life Technologies and Expression Analysis (LTEA) Assay for Glutamate-cysteine ligase catalytic (GCLC) using HepaRG (AID 2283498)
Settings: mRNA level, 48 h; actives raise or lower the signal
Active and inactive are the calls of the source. Rule for the calls: active = hit-call score of the fitted dose curve at least 0.9, where 1 is the maximum; inactive = score below 0.9.
Outcomes: active, inactive

[
  {
    "compound": "Cc1ccc(C(C)C)cc1",
    "cat": "inactive"
  },
  {
    "compound": "C[C@]12CC[C@@H]3c4ccc(O)cc4CC[C@H]3[C@@H]1CC[C@H]2O",
    "cat": "inactive"
  },
  {
    "compound": "CCCCCCCCCCCC[N+](C)(C)C",
    "cat": "inactive"
  },
  {
    "compound": "CCOC(=O)O[C@H](C)OC(=O)c1ccc2c(c1)cc(C(=O)NC1CCN(C(C)C)CC1)n2Cc1cc(-c2ccc(Cl)s2)on1",
    "cat": "inactive"
  },
  {
    "compound": "O=C(O)c1ccccc1C(=O)OCc1ccccc1",
    "cat": "inactive"
  },
  {
    "compound": "CCCCOC(=O)c1ccc(O)cc1",
    "cat": "inactive"
  },
  {
    "compound": "CC(C)(O)c1ccc(CNC(=O)c2cccnc2Oc2ccc3nonc3c2)cc1",
    "cat": "inactive"
  },
  {
    "compound": "Cc1cc2c(cc1C(F)(F)F)N(C(=O)Nc1ccc(Oc3cccnc3C)nc1)CC2",
    "cat": "active"
  },
  {
    "compound": "O=c1ccc2ccccc2o1",
    "cat": "inactive"
  },
  {
    "compound": "COc1cccc([C@H](O)C2CCN(CCc3ccc(F)cc3)CC2)c1OC",
    "cat": "inactive"
  },
  {
    "compound": "Cc1cc(F)ccc1-c1cc(N2CC[C@@H](O)[C@H]2CO)ncc1N(C)C(=O)C(C)(C)c1cc(C(F)(F)F)cc(C(F)(F)F)c1",
    "cat": "active"
  },
  {
    "compound": "CN(C[C@@H](CC[N+]12CCC(C3CCCCC3)(CC1)CC2)c1ccc(Cl)c(Cl)c1)C(=O)c1cc(C(F)(F)F)cc(C(F)(F)F)c1",
    "cat": "active"
  },
  {
    "compound": "Oc1ccc2ccccc2c1",
    "cat": "inactive"
  },
  {
    "compound": "CCCCCCCCOc1ccc(C(=O)c2ccccc2)c(O)c1",
    "cat": "inactive"
  },
  {
    "compound": "CCN(Cc1cccnc1)C(=O)c1cccc(Cl)c1[C@]1(C)C(=O)N(Cc2ccc(OC)cc2OC)c2ccc(Cl)cc21",
    "cat": "active"
  },
  {
    "compound": "NC(=O)c1nc(-c2cccc(-c3cc(F)ccc3OCC(F)(F)C(F)(F)F)c2)n[nH]1",
    "cat": "inactive"
  },
  {
    "compound": "OC12N=C(c3ccccc3)SC1Cc1cc(Cl)ccc12 (stereo not drawn)",
    "cat": "inactive"
  },
  {
    "compound": "COCC(C)OCC(C)OCC(C)O (stereo not drawn)",
    "cat": "inactive"
  },
  {
    "compound": "CC/C(=C(/CC)c1ccc(O)cc1)c1ccc(O)cc1",
    "cat": "active"
  },
  {
    "compound": "O=c1[nH]sc2ccccc12",
    "cat": "inactive"
  },
  {
    "compound": "CC(O)CC(C)(C)O (stereo not drawn)",
    "cat": "inactive"
  },
  {
    "compound": "CCCCOC(=O)CC(CC(=O)OCCCC)(OC(C)=O)C(=O)OCCCC",
    "cat": "inactive"
  },
  {
    "compound": "C[C@]12CC[C@@H]3c4ccc(O)cc4CC[C@H]3[C@@H]1CCC2=O",
    "cat": "inactive"
  }
]

Reference for the values: PubChem BioAssay (EPA / NIEHS)
